Recorded % PTP activity values for a group of compounds are listed next.
biological target: UniProt:Q06124; assay: PTP activity assay (DiFMUP substrate) with GST-Shp2; format: biochemical; conditions: at 20 μM
Sequence (Q06124 205-593): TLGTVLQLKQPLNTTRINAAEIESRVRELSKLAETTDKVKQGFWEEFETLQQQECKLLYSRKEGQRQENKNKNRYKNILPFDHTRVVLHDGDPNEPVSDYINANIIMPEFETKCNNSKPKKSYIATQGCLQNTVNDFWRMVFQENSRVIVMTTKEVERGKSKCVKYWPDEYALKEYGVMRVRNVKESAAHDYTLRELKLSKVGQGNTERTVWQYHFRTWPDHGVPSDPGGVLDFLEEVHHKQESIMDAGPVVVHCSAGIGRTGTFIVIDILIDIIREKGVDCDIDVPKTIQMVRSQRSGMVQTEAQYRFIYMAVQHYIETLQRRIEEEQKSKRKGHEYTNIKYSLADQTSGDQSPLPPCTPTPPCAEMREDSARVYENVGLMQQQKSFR

Solved entries (count: 5):
compound	result
O=C1Nc2ccc(C(=O)NCc3ccc(Cl)cc3)cc2/C1=N/Nc1cccc(C(=O)O)c1 [HL2-070-9]	25 ± 2% (2) at 20 μM
O=C1Nc2ccc(C(=O)O)cc2/C1=N/Nc1cccc(C(=O)O)c1	56.94% (1) at 20 μM
CC(C)NS(=O)(=O)c1ccc2c(c1)/C(=N/Nc1ccccc1C(=O)NCCN1CCOCC1)C(=O)N2	49 ± 6% (2) At 20 μM
O=C1Nc2ccc(S(=O)(=O)O)cc2/C1=N/Nc1ccccc1F	73 ± 10% (3) at 20 μM
CC(C)NS(=O)(=O)c1ccc2c(c1)/C(=N/Nc1ccccc1C(=O)NCCN(C)C)C(=O)N2	47 ± 6% (2) At 20 μM

According to the records, this compound CCOC(=O)c1cccc(N/C=C2\C(=O)Nc3ccc(S(=O)(=O)NC(C)C)cc32)c1 displays % PTP activity of 51 ± 7% (2) at 20 μM

Please fill in: % PTP activity reported for O=C(O)c1ccc2cc(C(=O)Nc3c(O)cccc3C(=O)O)ccc2c1 = 68 ± 5% (3) at 20 uM

Form: compound = CCN(CC)C(=O)c1ccc2c(c1)/C(=N/Nc1ccccc1[N+](=O)[O-])C(=O)N2 ; % PTP activity = 14 ± 2% (2) at 20 μM

Noted for COC(=O)c1ccc2cc(C(=O)Nc3ccc(C(=O)O)cc3)ccc2c1 : its % PTP activity reads 71 ± 3% (3) at 20 uM

get_value(item= CCc1ccccc1N/N=C1\C(=O)Nc2ccc(S(=O)(=O)O)cc21 , readout=% PTP activity) returns 89 ± 2% (3) at 20 μM

% PTP activity measured on CC(C)NS(=O)(=O)c1ccc2c(c1)/C(=N/Nc1ccccc1C(=O)NCc1ccccc1)C(=O)N2 = 48 ± 10% (2) At 20 μM

In plain terms, CC(C)NS(=O)(=O)c1ccc2c(c1)/C(=N/Nc1cccc(C(=O)NCCN3CCOCC3)c1)C(=O)N2 has a documented % PTP activity of 39 ± 5% (2) at 20 μM

Noted for CC(C)NS(=O)(=O)c1ccc2c(c1)/C(=N/Nc1cccc(C(N)=O)c1)C(=O)N2 : its % PTP activity reads 40 + 4% (2) at 20 μM

Form: compound = CC(C)NC(=O)c1ccc2c(c1)/C(=N/Nc1ccccc1C(=O)O)C(=O)N2 ; % PTP activity = 78.87% (1) at 20 μM

% PTP activity in this record for CC(C)NS(=O)(=O)c1ccc2c(c1)/C(=N/Nc1ccccc1C(=O)NCc1ccco1)C(=O)N2 : 47 ± 7% (20 At 20 μM

Reported % PTP activity of Cc1ccccc1N/N=C1\C(=O)Nc2ccc(S(=O)(=O)O)cc21 : 50 ± 14% (3) at 20 μM

Origin of the recorded values: patent US8987474B2
